method-notes: Dog PK study of C1 (S) enantiomer, single oral dose, plasma and whole blood by chiral LC-MS/MS
Assay type: in vivo, beagle dogs
experimental-parameters: dog, plasma; 2 hr; Beagle; oral 10 mg/kg; read-out: Plasma Concentration
experimental-readout: concentration at 2 hr (ng/mL)
Enter your answer as a number in ng/mL; do not include the unit.

Identify the reported concentration at 2 hr for the following entry. O=C(CC(F)(F)F)N1CC2(C1)OCc1cc(C3=NS[C@@](c4cc(Cl)c(F)c(Cl)c4)(C(F)(F)F)C3)ccc12 [C1 (S) enantiomer]
2260

###

method-notes: Dog PK study of C1 (S) enantiomer, single oral dose, plasma and whole blood by chiral LC-MS/MS
Format: in vivo, beagle dogs
experimental-parameters: dog; whole blood; Beagle; oral gavage 10 mg/kg; read-out: NCA AUC0-last
experimental-readout: AUC(0-t) (µg·h/mL)
Enter your answer as a number in µg·h/mL; do not include the unit.

Identify the reported AUC(0-t) for the following entry. O=C(CC(F)(F)F)N1CC2(C1)OCc1cc(C3=NS[C@@](c4cc(Cl)c(F)c(Cl)c4)(C(F)(F)F)C3)ccc12 [C1 (S) enantiomer]
144

###

method-notes: Dog PK study of C1 (S) enantiomer, single oral dose, plasma and whole blood by chiral LC-MS/MS
Type: in vivo, beagle dogs
experimental-parameters: dog, whole blood; 168 hr; Beagle; oral 10 mg/kg; read-out: Blood Concentration
experimental-readout: concentration at 168 hr (ng/mL)
Enter your answer as a number in ng/mL; do not include the unit.

Identify the reported concentration at 168 hr for the following entry. O=C(CC(F)(F)F)N1CC2(C1)OCc1cc(C3=NS[C@@](c4cc(Cl)c(F)c(Cl)c4)(C(F)(F)F)C3)ccc12 [C1 (S) enantiomer]
245

###

method-notes: Dog PK study of C1 (S) enantiomer, single oral dose, plasma and whole blood by chiral LC-MS/MS
Type: in vivo, beagle dogs
experimental-parameters: dog, whole blood; 768 hr; Beagle; oral 10 mg/kg; read-out: Blood Concentration
experimental-readout: concentration at 768 hr (ng/mL)
Enter your answer as a number in ng/mL; do not include the unit.

Identify the reported concentration at 768 hr for the following entry. O=C(CC(F)(F)F)N1CC2(C1)OCc1cc(C3=NS[C@@](c4cc(Cl)c(F)c(Cl)c4)(C(F)(F)F)C3)ccc12 [C1 (S) enantiomer]
21.5

###

method-notes: Dog PK study of C1 (S) enantiomer, single oral dose, plasma and whole blood by chiral LC-MS/MS
Format: in vivo, beagle dogs
experimental-parameters: dog, plasma; 840 hr; Beagle; oral 10 mg/kg; read-out: Plasma Concentration
experimental-readout: concentration at 840 hr
Number first, unit second: that is the form wanted.

Identify the reported concentration at 840 hr for the following entry. O=C(CC(F)(F)F)N1CC2(C1)OCc1cc(C3=NS[C@@](c4cc(Cl)c(F)c(Cl)c4)(C(F)(F)F)C3)ccc12 [C1 (S) enantiomer]
37.4 ng/mL

###

method-notes: Dog PK study of C1 (S) enantiomer, single oral dose, plasma and whole blood by chiral LC-MS/MS
Format: in vivo, beagle dogs
experimental-parameters: dog, whole blood; 120 hr; Beagle; oral 10 mg/kg; read-out: Blood Concentration
experimental-readout: concentration at 120 hr (ng/mL)
Enter your answer as a number in ng/mL; do not include the unit.

Identify the reported concentration at 120 hr for the following entry. O=C(CC(F)(F)F)N1CC2(C1)OCc1cc(C3=NS[C@@](c4cc(Cl)c(F)c(Cl)c4)(C(F)(F)F)C3)ccc12 [C1 (S) enantiomer]
292

###

method-notes: Plasma PK from oral tick and flea efficacy studies of the C1 racemate
Type: in vivo, Mongrel dogs
experimental-parameters: mongrel, dog, plasma, po, 20 mg/kg, plasma; Mongrel; Flea Efficacy study, oral 20 mg/kg; read-out: Cmax
experimental-readout: Cmax

Identify the reported Cmax for the following entry. O=C(CC(F)(F)F)N1CC2(C1)OCc1cc(C3=NSC(c4cc(Cl)c(F)c(Cl)c4)(C(F)(F)F)C3)ccc12 (racemic) [C1 racemate]
4740 ng/mL

###

method-notes: Plasma PK from oral tick and flea efficacy studies of the C1 racemate
Type: in vivo, Mongrel dogs
experimental-parameters: mongrel, dog, plasma, po, 20 mg/kg; Flea Efficacy study, oral 20 mg/kg
experimental-readout: CL/F (mL/min/kg)
Enter your answer as a number in mL/min/kg; do not include the unit.

Identify the reported CL/F for the following entry. O=C(CC(F)(F)F)N1CC2(C1)OCc1cc(C3=NSC(c4cc(Cl)c(F)c(Cl)c4)(C(F)(F)F)C3)ccc12 (racemic) [C1 racemate]
0.737

###

method-notes: Dog PK study of C1 (S) enantiomer, single oral dose, plasma and whole blood by chiral LC-MS/MS
Assay type: in vivo, beagle dogs
experimental-parameters: dog, plasma; 672 hr; Beagle; oral 10 mg/kg; read-out: Plasma Concentration
experimental-readout: concentration at 672 hr
Number first, unit second: that is the form wanted.

Identify the reported concentration at 672 hr for the following entry. O=C(CC(F)(F)F)N1CC2(C1)OCc1cc(C3=NS[C@@](c4cc(Cl)c(F)c(Cl)c4)(C(F)(F)F)C3)ccc12 [C1 (S) enantiomer]
55.6 ng/mL

Cited source: patent US10807992B2
